system.tested: Hck (UniProt P08631)
Sequence (P08631 whole entry, looked up): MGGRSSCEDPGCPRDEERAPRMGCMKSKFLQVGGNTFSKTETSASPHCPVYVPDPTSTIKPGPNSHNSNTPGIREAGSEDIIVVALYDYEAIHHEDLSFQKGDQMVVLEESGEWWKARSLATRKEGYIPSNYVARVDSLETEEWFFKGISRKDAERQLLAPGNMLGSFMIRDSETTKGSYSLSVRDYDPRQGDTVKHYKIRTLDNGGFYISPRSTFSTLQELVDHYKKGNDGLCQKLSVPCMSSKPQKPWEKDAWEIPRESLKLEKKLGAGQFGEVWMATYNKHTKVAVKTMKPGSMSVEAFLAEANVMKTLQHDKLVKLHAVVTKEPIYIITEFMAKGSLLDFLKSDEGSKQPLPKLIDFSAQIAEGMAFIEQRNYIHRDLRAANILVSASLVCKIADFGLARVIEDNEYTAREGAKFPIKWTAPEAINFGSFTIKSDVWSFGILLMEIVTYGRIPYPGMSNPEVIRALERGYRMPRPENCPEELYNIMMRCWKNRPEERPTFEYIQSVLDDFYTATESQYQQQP
test.method.notes: phosphorylation enrichment, bacterial display (enrichment ratio); higher = better substrate or ligand; peptides without Tyr show the background;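 note: 11-residue human phosphosite peptides and single-mutation variants displayed on the E. coli surface, counted by deep sequencing, each peptide's frequency after selection divided by its frequency in the unselected input library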;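 note: frequency after pTyr selection over input frequency; kinase dosed for 20-30% of maximal phosphorylation in three min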
Use T when the recorded phosphorylation enrichment is no lower than 0.5; use F when it is lower.

sequence	assigned.class
GDPTEYYSTAI [IGSF22_Y501]	T
VLTSKHRGGGG [HBA1_Y141_Y141H]	F
FVSIVYNDSGE [TSC2_Y1650]	T
TVEDHDFEGGI [TKT_Y563_Y563D_YF]	T
RPGSGYTKIMR [PKLR_Y564_N566K]	F
EIEFLYNENTV [IARS1_Y680]	T
SLFNGYVFSGV [NEIL3_Y71_YF]	T
NKKFHYRELPV [ERN2_Y860_H858Y_YF]	F
LSQDVYEEDSF [RET_Y900_R897Q_YF]	T
VKYLGYPPPEI [KDR_Y357_A352V]	F
ERRLIYTSDPK [VPS13D_Y864]	F
ATVRPYRPFII [LRP5_Y1528_A1525V_YF]	F
GCRSKSVGLWG [KCNQ1_Y184_Y184S]	F

* * *

system.tested: Fyn (UniProt P06241)
Sequence (P06241 whole entry, looked up): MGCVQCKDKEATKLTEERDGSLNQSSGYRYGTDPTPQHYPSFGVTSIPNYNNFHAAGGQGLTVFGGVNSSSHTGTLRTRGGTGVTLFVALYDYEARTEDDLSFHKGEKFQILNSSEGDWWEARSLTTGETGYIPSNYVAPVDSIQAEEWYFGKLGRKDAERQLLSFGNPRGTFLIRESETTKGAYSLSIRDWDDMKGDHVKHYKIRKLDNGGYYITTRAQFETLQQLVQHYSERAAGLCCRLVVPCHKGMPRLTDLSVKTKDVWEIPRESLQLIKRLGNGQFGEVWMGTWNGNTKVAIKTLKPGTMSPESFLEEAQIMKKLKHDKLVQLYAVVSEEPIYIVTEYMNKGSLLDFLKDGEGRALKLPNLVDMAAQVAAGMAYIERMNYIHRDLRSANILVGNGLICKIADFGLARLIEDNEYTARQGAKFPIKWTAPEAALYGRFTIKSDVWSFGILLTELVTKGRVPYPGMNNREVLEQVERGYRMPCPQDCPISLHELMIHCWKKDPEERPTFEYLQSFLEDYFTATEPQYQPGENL
test.method.notes: phosphorylation enrichment, bacterial display (enrichment ratio); higher = better substrate or ligand; peptides without Tyr show the background

sequence	phosphorylation enrichment
NFFDLYGGEKF [PTPN11_Y66_D61N_YF]	1.79
GLIPAYHRFIM [NMNAT1_Y64_V67F]	0.535
ACDALYPPGPP	0.482
LQLLGDRPVYS [CHST6_Y358_Y358D]	1.7
FSQQTYYRVSN [ABCD1_Y180]	1.18
HSGVSYFINLC [IGF2R_Y2024_N2020S_YF]	0.44
LSVISYDLGMF [GBA3_Y174_M172I]	0.436

* * *

Quick list: phosphorylation enrichment per entry.
system.tested: Fyn (UniProt P06241)
test.method.notes: phosphorylation enrichment, bacterial display (enrichment ratio); higher = better substrate or ligand; peptides without Tyr show the background

sequence	phosphorylation enrichment
VFFGSYSCPFG [NKAP_Y104_R106C_YF]	0.437
QAQMDYRRLQP [MPL_Y591]	0.543
EADRKYEEVAG [TPM3_Y163_R168G]	0.508
TIMTDYNPNFC [ALK_Y1092_YF]	0.499
SKHHLYSDLQT [PTCHD1_Y84_R82H]	0.505
KLADMYGGGED [CDH1_Y876]	0.484
IRTIDYRFTVW [IDS_Y497_YF]	0.423
SRGSSYNSIPK [FLNC_Y2625_S2626N]	0.297
TFEPNYGTVKQ [RAPGEF6_Y1447_YF]	1.36
RFQKLYLDRNL [IGFALS_Y248_L244F]	0.492
GYKVRYATGSI [FGFR1_Y210_W213G]	0.401
VMAALYGRLYE [BTD_Y536_T532M]	5.87
GLVFLYVEKNQ [PRELP_Y156_M157V]	0.505
ATVRPYRPFII [LRP5_Y1528_A1525V_YF]	0.397
QNVADYMRFLM [RPL5_Y207_YF]	1.2
VKPRRYRPGTV [H3-5_Y41_H39R]	0.58
EIEFLYNENTV [IARS1_Y680]	0.479
RQSRNYLGGFA [SYK_Y47]	0.597
NLNGKCNKPRA [ANGPTL3_Y417_Y417C]	0.422
FIATQYSLRPR [LBR_Y166_YF]	0.458
FAADFYKLLGN [ROR2_Y646_YF]	0.366
EIVHRYVELLD [AP1S3_Y87]	0.464
TLPAFYMENFS [GLB1_Y552_G554E]	0.484
TLLERYGMTKI [ACSF3_Y355_E359K]	0.484
FADIAYNFRDG [PAH_Y166_H170D_YF]	0.534
GDAMLYYPSVS [GPR143_Y177_A173D]	0.957
HFPFQCHRQLY [F12_Y53_Y53C]	0.528
PPDGEYFTLQI [TP53_Y327_L323P]	3.74
TISPFYCQSLF [CRYAA_Y48_R49C_YF]	0.571

* * *

System: Fer (mouse)
test.method.notes: phosphorylation enrichment, bacterial display (enrichment ratio); higher = better substrate or ligand; peptides without Tyr show the background
Use true (1) when the recorded phosphorylation enrichment is no lower than 0.5; use false (0) when it is lower.

sequence	system.tested	assigned.class
EVRAQYEEIAQ [KRT76_Y361]	Fer (mouse)	true (1)
MEKEKYVSFIS [JMJD1C_Y596_YF]	Fer (mouse)	false (0)
RVGNMYMRGLS [ABCG8_Y209_V210M]	Fer (mouse)	false (0)
LNRAGYCDALE [MTUS1_Y151_C148R]	Fer (mouse)	true (1)
IFGASYVPFAA [RBM47_Y541_YF]	Fer (mouse)	true (1)
ARVANYQRDGP [CAT_Y386]	Fer (mouse)	false (0)
IRKKYYRAILE [CHD7_Y1218_Q1214R]	Fer (mouse)	false (0)
TYGQVYKGRHV [TNIK_Y40]	Fer (mouse)	true (1)
RFQKLYLDRNL [IGFALS_Y248_L244F]	Fer (mouse)	false (0)
TVLGEYALPKG [CYP24A1_Y407]	Fer (mouse)	false (0)
NSAFFYKTAEE [CCT6B_Y250_G247A]	Fer (mouse)	false (0)
SVMAEYGLYAA [VSX2_Y219_G223A]	Fer (mouse)	true (1)
QLDQRYLLVPE [DDX49_Y223]	Fer (mouse)	false (0)

* * *

System: c-Abl (mouse)
test.method.notes: phosphorylation enrichment, bacterial display (enrichment ratio); higher = better substrate or ligand; peptides without Tyr show the background

sequence	phosphorylation enrichment
EERNTYVNTTL [TEK_Y1102_K1100N]	0.638
MVSLFYGTAIF [OR10C1_Y251_L255I]	1.22
AIMSFYAALID [RYR1_Y2426]	1.02
CTTLHYNYMCN [TP53_Y234_I232L]	0.675
QSRSPYSSRHS [CDK13_Y415_R410Q]	0.597
TSLAQYDSNSK [BMX_Y216]	0.543
TFEPNYGTVKQ [RAPGEF6_Y1447_YF]	0.522
KKCTRYIDCDL [ASPA_Y64]	0.757
HAVYVYDICHV [TWNK_Y508]	1.18
FADIAYNFRDG [PAH_Y166_H170D_YF]	0.551
FVSIVYNDSGE [TSC2_Y1650]	0.647
IFLENYNAGTF [CFI_Y421_H418L_YF]	0.542
YKEQGYHRLPP [RIN1_Y681]	0.455
VDASFYGGRGV [ANTXR2_Y381_YF]	0.443
GHEYIYVDPMQ [PDGFRA_Y574]	8.98
EASGIYVKSII [PATJ_Y396]	0.677
HHIDFYKKTTN [FGFR1_Y654_YF]	0.491
EADRKYEEVAG [TPM3_Y163_R168G]	0.613
KMKGDYFCFLA [YWHAG_Y130_R132C_YF]	2.24
QAQMDYRRLQP [MPL_Y591]	0.622
SSNLYYRCLTA [CNGA3_Y169_W171C]	0.896
SLALFYRKVYH [RBL1_Y792]	0.593
KLSFSYGQALQ [ALDOB_Y302_R304Q]	0.686
QDGFSYLSRQM [LDLR_Y847_P848L_YF]	0.563
KNKELYSDLFD [PDE10A_Y300]	0.918
SFPSFYTSHVQ [NEFL_Y443_YF]	0.498
GGDGSYVSVPL [TNNI3K_Y425_S430L]	0.471
RLLVVYPSTQR [HBB_Y36_W38S]	0.899
IVAREYFSKAD [CAMK2B_Y107_E110K_YF]	0.448

* * *

Quick list: phosphorylation enrichment per entry.
system.tested: EPHB2 (UniProt P29323)
Sequence (P29323 whole entry, looked up): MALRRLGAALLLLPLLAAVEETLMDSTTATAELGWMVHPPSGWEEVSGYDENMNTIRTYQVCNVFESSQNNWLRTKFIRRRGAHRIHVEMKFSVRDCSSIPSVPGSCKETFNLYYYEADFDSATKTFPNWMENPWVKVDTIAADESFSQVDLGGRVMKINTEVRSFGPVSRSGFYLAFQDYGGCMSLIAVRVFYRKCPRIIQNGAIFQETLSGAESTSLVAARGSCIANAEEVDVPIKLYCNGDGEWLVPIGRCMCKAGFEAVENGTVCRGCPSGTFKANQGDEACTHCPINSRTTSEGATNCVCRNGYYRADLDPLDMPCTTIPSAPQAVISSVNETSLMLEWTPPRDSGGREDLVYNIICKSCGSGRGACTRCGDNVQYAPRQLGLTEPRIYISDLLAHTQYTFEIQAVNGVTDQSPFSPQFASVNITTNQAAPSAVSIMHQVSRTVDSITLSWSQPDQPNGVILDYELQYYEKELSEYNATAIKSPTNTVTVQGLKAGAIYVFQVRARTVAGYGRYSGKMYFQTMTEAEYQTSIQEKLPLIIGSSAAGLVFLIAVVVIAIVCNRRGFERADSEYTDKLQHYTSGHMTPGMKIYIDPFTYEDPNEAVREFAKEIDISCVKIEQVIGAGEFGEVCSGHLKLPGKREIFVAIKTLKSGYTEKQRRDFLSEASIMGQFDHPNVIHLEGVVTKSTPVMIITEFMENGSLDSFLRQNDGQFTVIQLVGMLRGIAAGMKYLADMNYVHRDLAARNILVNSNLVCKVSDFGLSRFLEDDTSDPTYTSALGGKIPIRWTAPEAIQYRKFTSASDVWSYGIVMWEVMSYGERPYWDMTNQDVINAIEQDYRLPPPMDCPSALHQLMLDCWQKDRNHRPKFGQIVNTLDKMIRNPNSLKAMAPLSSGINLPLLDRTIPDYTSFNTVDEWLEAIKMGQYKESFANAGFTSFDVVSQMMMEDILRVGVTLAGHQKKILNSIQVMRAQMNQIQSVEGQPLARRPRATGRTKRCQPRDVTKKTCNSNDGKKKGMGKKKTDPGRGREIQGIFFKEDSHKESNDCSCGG
test.method.notes: phosphorylation enrichment, bacterial display (enrichment ratio); higher = better substrate or ligand; peptides without Tyr show the background

sequence	phosphorylation enrichment
RTVPLYESLRK [DDB1_Y718_P721L]	26.1
ACCLLYRGDVV [TUBA4A_Y319]	0.557
SVTCTYSLALN [TP53_Y126_P128L]	0.6
TSIGNYFKPWF [DHCR24_Y299_N294T_YF]	4.48
TLMNAYSSCSH [KIF11_Y231_R234C]	0.566
LSVISYDLGMF [GBA3_Y174_M172I]	0.72
KDDEKYLDVSR [MTM1_Y260_I264S]	0.556
KQELVYTNKKL [OPTN_Y356]	0.561
YSPYDYQPCLA [TNS1_Y798]	4.75
ANYTEYVATSW [CDKL5_Y171_R175S]	8.89
RNIQQCNSFVS [PRKAR1A_Y373_Y373C]	0.634
FARECYSALPQ [SARS2_Y52_G51C_YF]	0.603
RLLRGHDQSAF [HLA-C_Y137_Y137H_YF]	0.389
